Answer each item with its documented self-cleavage.
B1: HDV Ribozyme (parent)
chain: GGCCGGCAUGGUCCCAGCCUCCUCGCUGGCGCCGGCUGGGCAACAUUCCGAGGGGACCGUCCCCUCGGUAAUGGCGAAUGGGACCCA

variants of: B1; assay: self-cleavage, relative activity (ratio to wild type); higher = more cleavage; co-transcriptional
# respond with the number and nothing more

[ask] Identify self-cleavage associated with the variant G29C U60G
[reply] 0.199

[ask] Identify self-cleavage associated with the variant C48A U65G
[reply] 0.954

[ask] Identify self-cleavage associated with the variant U20C U27A
[reply] 0.196

[ask] Identify self-cleavage associated with the variant G2C C64A
[reply] 0.0652

[ask] Identify self-cleavage associated with the variant U60C C85G
[reply] 0.965

[ask] Identify self-cleavage associated with the variant G34C U69G
[reply] 0.703

[ask] Identify self-cleavage associated with the variant C14A U46C
[reply] 0.237

[ask] Identify self-cleavage associated with the variant G73U
[reply] 0.382

[ask] Identify self-cleavage associated with the variant G59U U72C
[reply] 0.599

[ask] Identify self-cleavage associated with the variant G29U A71G
[reply] 0.162

[ask] Identify self-cleavage associated with the variant G34C C63G
[reply] 0.0378

[ask] Identify self-cleavage associated with the variant G54C G81C
[reply] 0.196

[ask] Identify self-cleavage associated with the variant C64A G81C
[reply] 0.203

[ask] Identify self-cleavage associated with the variant G31U U60G
[reply] 0.212

[ask] Identify self-cleavage associated with the variant C44A A83U
[reply] 0.0615
